test: soluble on expression in E. coli; label from the status in PepcDB or PDB records
Outcome measure: soluble on expression in E. coli

Example sequences with recorded soluble on expression in E. coli:
Record sequence: MSLQIKFWPQDLKLAHTWTIASSVTSGSDVTSVGIVQLTDRDGTVGLGEAAPARRYNESTPGSLDFIAKVDATKLSFDNIEASMKYVESLASGQFAAKSAINVALLDGAARKAGKPIYDLLGLGFRNNHHVTSFSIGIDKADVIRKKVLAAEQYPVLKLKVGAADDKANLAALREAAPQKWVRVDANEGWKTKEHALEMIEWLAQDKFIQYIEQPMPADSNPKDIAWLKARSPLPLFGDESYHTAKDVDHCAECYHGVNVKLCKTGGISNAYEALQVARKAGLKTMIGCMIETSILISAAAHLAELCDYLDIDGNLLTTNDPYLGVTAEKGLLSFASAPEKLGLRVRAKEGHHHHHH
soluble on expression in E. coli: soluble

Record sequence: MGSDKIHHHHHHMDFSDEKMPFLADAVDRVRVEECFRQCLVIAQNFRVQNIRVIRHKLGRRCLIEYELMDDVGEIITLIGKVRAKGTDFHSYELQKSLWESGFADDSADGISVPEPVGIIPEWQMWLQRRVEGVTATQILSQTNGIFPAKLIAEAAYKLHQANIIPRRSHRMSDELRILHERIPLVMEQYPQWQRRLERILLASDDLGANTPELKLCGIHRDFYPDQVIMNNSRLYLLDLDLYCAGNPAVDIGNFIAHLQEYSLRTVGNPQALQEYEDILKTRFLQLTGDEFSLAIQAYTILTLVRHIYISTLFPERRPFTAALLHLCEQRLNITHNS
soluble on expression in E. coli: not soluble

Record sequence: MSLRTLPAIVMMTLYALAGLAHAQQPPWRVGFCQDTLDIPWRAAQAMTFSQTLQTDKRFQVILSDAKGNTTQQAIDLEHMVERGVHVLVTSPRDGAVLTPVISNIYRQGVPVVLLSRRTLDENFTTFIAPDDAEIGRQAARYLSKRLNEKGKILVIQGLGSASTTQQRTVGFIQELSLHPHMQIVAQPFANYKKEMAILIMESILAQKLPFDAIYVHSDAMALGAILALKRAGIDPTKLPIVSIDYTRAGRESLRKGEIDAIFTYPNGVKQGITAVKRILAGQPVNKFQTVPSTLVTQENINTLEPVEGHHHHHH
soluble on expression in E. coli: soluble

Record sequence: SNPQIRNPMKAMYPGTFYFQFKNLWEANDRDETWLCFTVEGIKRRSVVSWKTGVFRNQVDSETHCHAERCFLSWFCDDILSPNTKYQVTWYTSWSPCPDCAGEVAEFLARHSNVNLTIFTARLYYFQYPCYQEGLRSLSQEGVAVEIMDYEDFKYCWENFVYNDNEPFKPWKGLKTNFRLLKRRLRESLQ
soluble on expression in E. coli: soluble

Record sequence: GIDAAEYVLYGGKGGVGKTTCAAATALASARDDTATLVVSTDPAHSLSDTLDADIPATPTRIREDIPLYAAEIDPEAAVGEGPLGVEEDALGGVGELLGGDGMFGGGAGGAAGAGQAEDPIGGEEGLLGGSMPGADEAAALRLLLDYVDDDRFDRVVIDTAPTGHTLRLLELPETMDSMVGKILQLRERFSGMMDNLTGMFGDDQDVDAEAGIEDLQELSDRIEHLRGILQDPQRTDFRIVMVPEELSVVESERLLAQLGEFNIPVSTVVVNRVMQDPSEVLGEDVDIAGPNHADCEFCARRWQVQQDALARSQDMFRGHDVRRVPLFAEEVRGERLLSVVAACLD
soluble on expression in E. coli: not soluble

Record sequence: MKPLTYTLVVNGPQYGTQSARNAYLFAKALIEKGHILKSVFFYQDGVLNGSSTHVPANDEFNLLQGWQSLAQSHQVQLETCVAAALRRGVVSEQEASQHGLASHNLAAHFTQAGLGSLAQALLEQDRVVQF
soluble on expression in E. coli: soluble

Record sequence: MFIGGAIISFLFLFGYMWKEAHSNRIRHVTLSFPHFPDNGPPLTIFFISDIHRRSVSCRMLETVKGKADLVVIGGDLAEKGVPAARVRENVRRLQTVAPVYFVWGNNDDEVDYDLQSLLEEERVYVLKNKAEVWEHGGVPIALIGVGDVSRKEADIARALEHVPPESFRILACHNPAIIARLEDEQHISLVLSGHTHGGQIRLFSFGLYEKGGLKWHGNTALFTSNGYGTTGVPLRLGAPAETHLIKIVPGKLATEKKCLSKTGKTMLEHHHHHH
soluble on expression in E. coli: not soluble

Record sequence: MKEPVKPTVKLAEIPPREPRFTPEQERIYARLSVHDPFNMLSEQHKANLIQLMTHGLGYRPIQLS
soluble on expression in E. coli: not soluble

Record sequence: MGSDKIHHHHHHMRILWINHRDPKHPQAGGAEVRLYEIARRLVKMGHEVMVLCEKVSRLPGEEVLEGIRIKRSGGRASIHLLAPLYVRKHGHEYDVIVDDIAHAVPWYSPLVTKTPVVAQIHHVHQDVVYIELPKPLAWIVSRAEKTIAKIYRRFIAVSQSTKKELAKRLGIDPDRIAVVPNGVDLEKYRPGSKDPRPTILWAGRIKMYKNLDHLLKAYRIVKQEIPDAQLIIIGTGDQEQKMRELAKKLEPRDVHFLGKMSEQEKIMWMQRAWIIVSTSMIEGWGITITEAAACKIPAIAYNVPGLRDSVKHMETGILVEPGNIEQLAKAIAWLLTDNSLRNKLSENAYNYAQSFSWDNTAITFLNILEDITRI
soluble on expression in E. coli: not soluble

Record sequence: MSLRPDMSRLTMIRFLTEIDYPPFNFTGADGNPAGFNVDLARALCDEIKITCTVQMRKFETLLDALASNRGDAIIASLAVTPQTRTKLDFTDPYYRTPARFVARKDAVMPEMRPEFLEGRKVGAVAGSAHEAYLKAMFTDAELHSYPNAEALRAALKRGEVDFIFGDAISLAFWINGTDSENCCAFSGAPFLESRYFGEGVGIAVRKGNDTLRQALNWALFRVWEKGQYTDLWLRYFSVSEGHHHHHH
soluble on expression in E. coli: soluble

Now look at this entry.
Quick note, soluble on expression in E. coli for GSHMQTHAARMRTFMYWPSSVPVQPEQLASAGFYYVGRNDDVKCFCCDGGLRCWESGDDPWVEHAKWFPRCEFLIRMKGQEFVDEIQGRYPHLLEQLLSTS landed at soluble

----------
assay: soluble on expression in E. coli; label from the status in PepcDB or PDB records
Outcome measure: soluble on expression in E. coli

Record sequence: MKCQKDDPICHLRDDMQDGDNSVNRTVSHLFQLTLTILTRVYSNLNEISLVCQSWNLHAESSGIYKIPQKVQISLLKTFETNREAKSKNLLDPVLLDQFANQSIRAHSLLLLPYSTTRYKTWTGKTFSKHNLIDEFVGKSFECATESFCPDPCCSGIPSVVRSSSKYAPLCKMNSCQKASTCIVKHFENDDLSKLRLNQFNVNCGCEEPGTIYRPDIGRCVHHNPCTKQSLCRDFGQECVNTASGYKCVCQLGYFRNGSNSCAPLKFSAPVYHGFALSEEMDEL
soluble on expression in E. coli: not soluble

Record sequence: ARGVKGHVRVLANTTAMTEFMPAVLARYLAAHPDVNVELRERLSYLVVRAVADGSADIGVVAGCAPDQKLQFIPYRKDRLVVVTPAGHRLAAEESVAFADTLADDYVGLSEWSAIHPFLVQAAASLGRTFKFRVEVGNFEAVCRMIESG
soluble on expression in E. coli: not soluble

Record sequence: MGSDKIHHHHHHMTRSTIGGKRFEPIPARFSSIGAGLMNIKQLEVLRTLLSTGSTIATAKAMGLSQSGISRLLAQLEADLSLTLFARDKGRLIPTPEAALLARDAENVLLAVDRMSGHAEDLRNGAAGPEIVRIGLPSSMWENFAPAMLIDYVRDFPGVRIETFFETTTAINKLVGERVIDLGFLRMEGEIGPGIDVERVATGKSVCVVREDHPLADLQEITVKDLRNIPLILIGRQRPNRMALDQVFKKAGVKPMVKIETHTNSSACAYVAHGLGVTIISSFYANLYRHLPVVARPFVPQATQEFGLARASGAPLSIAAQALSNALKREIQLSQKID
soluble on expression in E. coli: not soluble

Record sequence: MSKIAKTAIISPKAEINKGVEIGEFCVIGDGVKLDEGVKLHNNVTLQGHTFVGKNTEIFPFAVLGTQPQDLKYKGEYSELIIGEDNLIREFCMINPGTEGGIKKTLIGDKNLLMAYVHVAHDCVIGSHCILANGVTLAGHIEIGDYVNIGGLTAIHQFVRIAKGCMIAGKSALGKDVPPYCTVEGNRAFIRGLNRHRMRQLLESKDIDFIYALYKRLFRPIPSLRESAKLELEEHANNPFVKEICSFILESSRGVAYKSSEYSSEEKQEE
soluble on expression in E. coli: soluble

Quick note, soluble on expression in E. coli for MTVDPASHITIPEADLARLRHCNHHDPHGFYGWHETEAGSVIRTRQVGATQVNLLIDDTSHVMTPIGDDIFAIDLGHRERADYRLEVTWPDQEPQVKADPYYFLPTVG landed at not soluble

Quick note, soluble on expression in E. coli for MVTVVDRVTDRRLRHPEKAHRPDTSVQKKPDWIRVKAPTSQVYKETHGIVRAHKLVTVCEEAGCPNIGECWSQRHASFMILGEICTRACAFCNVATGIPFAVDENEPERVADAVARMELKHVVITSVDRDDLADGGAEHFAKVIYAIRRKAPKTTIEVLTPDFRHKDGALEIVVAAKPDVFNHNLETVPSKYLKVRPGARYFHSIRLLQRVKELDPTIFTKSGIMVGLGEERNEILQLMDDLRSADVDFMTIGQYLQPTRKHHPVIRFVPPEEFESFAKIGKVKGFLHMASNPLTRSSHHAGDDFAILQKARDEKFALQR landed at not soluble

Quick note, soluble on expression in E. coli for RPSSVVIGTASQGGVYYIYGGGLAQLLDRELGVSSNVEVTGGPVHNMQLVNEQEQDIGMITMGPGYEGVLGEGEWTGGETYDNVRVIFPMYTTPFHWWSLESSGVTSIEDMDGMRVGVGPSGGTSGTYLPIIHEVLGLDITPVLAGANDMVSQQLDGQLDVIGFAAGLPIPAVAEVEAQRDIHLFGIDGENRDKVLEALPYFEPYTIPADTYDQLDEDLETIAMFNFGITYSEMNADFVYELVKAYHENNDLLMTTHSSAEEAVPEAILRNEVVPLHVGAIRYYEEIGIDLPESVYPAEWENE landed at not soluble

Quick note, soluble on expression in E. coli for MSLSIVEPDLENCFRILIATDNHIGYAEKDPVRGQDSINTFREILELARDHDVDFILLAGDLFHENRPSRTCMHQTIALLREFTLGDKPIEFELLSDPMDGSTPGFSFPAVNYEDPNINIAIPVFSIHGNHDDPQGTGPEGALCALDVLSVSGVLNYFGKSDLVADENAADNPEKGIQIRPVLLRKGTTHVALYGCGNIRDQRMYQELRANKVKMFMPTGGNVPDSEWFNILLVHQNRVRHGPQNYVPENMFDDSMRLVIWGHEHDCRITPESVADKSYFITQPGSSVATSLAPGEAIPKHVGLLSIQGSQFQLEEIPLKTVRPFELDEVVLSYAAEQGAVDLNDRDSITSFLREQVEALILQAKKEGHHHHHH landed at not soluble

Quick note, soluble on expression in E. coli for KILAVTACPTGIAHTFMAADALKEKAKELGVEIKVETNGSSGIKHKLTAQEIEDAPAIIVAADKQVEMERFKGKRVLQVPVTAGIRRPQELIEKAMNQDAPIY landed at soluble

Quick note, soluble on expression in E. coli for MSITSTDICQAADALKGFVGFNRKTGRYIVRFSEDSFGMDVADDSITPTSEFVWSSVRDDVMRLGREQLQILLEQNINERLNIGEPLLVYLRRQDLPEITAQRQLR landed at not soluble

Quick note, soluble on expression in E. coli for MGSDKIHHHHHHMWSHQSWQDSVYGHQTKATERLAHYAHIFNSVEGNTSFYATPAPQTVLNWHSATPDNFRFTFKLPQRITHQKQLQDCNQDLRDFFHIMAPLIEKTGIWKIQLPAHFGPEQLPVLARFLDHVPQGLTYGVEVRHFAFFAKGDAERTLNRLLIDKKVNRIIMDSRPVFALPPFNETIIDAHKKKPRVPVHPIATANNPVVRFIGQADGTLALLTQLGTTALPKDNDAFFTHWLKQLTLWLNEGREPYLFIHTPDNQTAPELAARLYRKLQLHIAEHIQLADIKLLEKKAEEKSAQMGLDW landed at not soluble

Quick note, soluble on expression in E. coli for MRVLVKLSGEALSGEGGRGFDPERVNYIVNEIKSAIEEGFKIGIVVGAGNLFRGVELKNLTMTRADQIGLLGTVMNSVYLKDIFERSGLKARIYSQIVNLPDVERVNYDSIESALRENSILIFAGGTSNPFFTTDTAAVLRAQEMRAKLVVKATKVDGVYDKDPKKFPDAKKIPHLTFSEAMKMGLKVMDAEAFALCKKLGITVKVINFFEPGTLLKALKGEDVGSTVVPD landed at soluble
